# CC50 at 72 h listing for each entry below
- Assay Details: Cytotoxicity against human HepG2.2.15 cells assessed as reduction in number of viable cells after 3 days by MTT assay
- Assay type: cell-based, HepG2 2.2.15
Value Type: CC50 at 72 h (µM)

[[record]]
molecule = "Nc1nc2c(ncn2COCCO)c(=O)[nH]1"
value_type = "CC50 at 72 h"
qualifier_symbol = "="
reported_value = 630

[[record]]
molecule = "CC1CN2CC(C)O[Si](CCCNC(=O)CCCC(=O)OCCOCn3cnc4c(=O)[nH]c(N)nc43)(OC[C@@H]2C)O1 (stereo partly specified)"
value_type = "CC50 at 72 h"
qualifier_symbol = "="
reported_value = 732

[[record]]
molecule = "CC1CN2CC(C)O[Si](CCCNC(=O)CCC(=O)OCCOCn3cnc4c(=O)[nH]c(N)nc43)(O1)O[C@@H](C)C2 (stereo partly specified)"
value_type = "CC50 at 72 h"
qualifier_symbol = "="
reported_value = 467

[[record]]
molecule = "Nc1ccn([C@@H]2CS[C@H](CO)O2)c(=O)n1"
value_type = "CC50 at 72 h"
qualifier_symbol = ">"
reported_value = 1000

[[record]]
molecule = "Nc1nc2c(ncn2COCCOC(=O)CCC(=O)NCCC[Si]23OCCN(CCO2)CCO3)c(=O)[nH]1"
value_type = "CC50 at 72 h"
qualifier_symbol = "="
reported_value = 485

[[record]]
molecule = "Nc1nc2c(ncn2COCCOC(=O)CCCC(=O)NCCC[Si]23OCCN(CCO2)CCO3)c(=O)[nH]1"
value_type = "CC50 at 72 h"
qualifier_symbol = "="
reported_value = 570


---

- System: Hepatitis B virus
- Assay Details: Antiviral activity against Hepatitis B virus transfected in human HepG2.2.15 cells assessed as inhibition of HBeAg secretion after 6 days by ELISA
- Assay type: functional, organism-based
- Details: HepG2 2.2.15, 144 h
# IC50 listing for each entry below
Value Type: IC50

[[record]]
compound = "Nc1nc2c(ncn2COCCO)c(=O)[nH]1 [ACYCLOVIR]"
test_target = "Hepatitis B virus"
reported_value = "> 1000 µM"

[[record]]
compound = "Nc1nc2c(ncn2COCCOC(=O)CCC(=O)NCCC[Si]23OCCN(CCO2)CCO3)c(=O)[nH]1"
test_target = "Hepatitis B virus"
reported_value = "125 µM"

[[record]]
compound = "CC1CN2CC(C)O[Si](CCCNC(=O)CCCC(=O)OCCOCn3cnc4c(=O)[nH]c(N)nc43)(OC[C@@H]2C)O1 (stereo partly specified)"
test_target = "Hepatitis B virus"
reported_value = "486 µM"

[[record]]
compound = "Nc1nc2c(ncn2COCCOC(=O)CCCC(=O)NCCC[Si]23OCCN(CCO2)CCO3)c(=O)[nH]1"
test_target = "Hepatitis B virus"
reported_value = "160 µM"

[[record]]
compound = "CC1CN2CC(C)O[Si](CCCNC(=O)CCC(=O)OCCOCn3cnc4c(=O)[nH]c(N)nc43)(O1)O[C@@H](C)C2 (stereo partly specified)"
test_target = "Hepatitis B virus"
reported_value = "89.8 µM"

[[record]]
compound = "Nc1ccn([C@@H]2CS[C@H](CO)O2)c(=O)n1 [LAMIVUDINE]"
test_target = "Hepatitis B virus"
reported_value = "> 1000 µM"

